# target: PARP-1 enzyme (Homo sapiens)
# Construct: purchased Trevigen 4690–096-K
# Sequence (P09874 whole entry): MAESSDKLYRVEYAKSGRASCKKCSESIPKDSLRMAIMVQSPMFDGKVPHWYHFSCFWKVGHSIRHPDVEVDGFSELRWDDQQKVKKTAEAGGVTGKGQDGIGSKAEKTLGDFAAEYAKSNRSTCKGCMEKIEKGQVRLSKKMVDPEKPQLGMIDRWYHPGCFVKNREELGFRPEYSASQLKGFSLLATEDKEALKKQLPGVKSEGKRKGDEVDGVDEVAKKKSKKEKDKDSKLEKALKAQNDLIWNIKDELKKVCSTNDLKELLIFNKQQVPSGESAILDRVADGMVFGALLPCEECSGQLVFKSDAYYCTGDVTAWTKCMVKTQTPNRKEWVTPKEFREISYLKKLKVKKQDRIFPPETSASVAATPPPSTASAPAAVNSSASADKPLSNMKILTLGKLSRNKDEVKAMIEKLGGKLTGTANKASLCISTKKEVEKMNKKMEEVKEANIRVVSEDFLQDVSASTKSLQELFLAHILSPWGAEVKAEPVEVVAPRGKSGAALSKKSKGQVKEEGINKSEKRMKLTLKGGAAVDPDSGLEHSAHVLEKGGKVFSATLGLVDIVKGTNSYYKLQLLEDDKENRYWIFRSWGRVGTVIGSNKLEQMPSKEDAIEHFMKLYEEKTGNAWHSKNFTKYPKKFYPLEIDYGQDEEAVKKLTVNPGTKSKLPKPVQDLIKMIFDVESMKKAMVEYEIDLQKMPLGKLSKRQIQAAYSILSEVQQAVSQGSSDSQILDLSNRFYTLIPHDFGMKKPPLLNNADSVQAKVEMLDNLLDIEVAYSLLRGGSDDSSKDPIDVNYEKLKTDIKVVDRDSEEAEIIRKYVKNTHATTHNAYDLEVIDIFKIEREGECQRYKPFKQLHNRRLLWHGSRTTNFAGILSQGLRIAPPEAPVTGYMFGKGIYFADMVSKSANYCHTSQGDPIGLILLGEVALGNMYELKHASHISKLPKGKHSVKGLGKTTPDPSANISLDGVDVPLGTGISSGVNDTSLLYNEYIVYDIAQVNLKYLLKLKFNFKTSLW
# measurement-description: biochemical
# condition-context: mean ± SD, n=3
Listed next: entries and their corresponding log10 of IC50.
experimental-readout: log10 of IC50 (log10 of the value in nM)

• O=C(/C=C/c1cccc(F)c1)N1CCN(C(=O)c2cc(Cc3n[nH]c(=O)c4ccccc34)ccc2F)CC1 = 2.43
• O=C(/C=C/c1cccc([N+](=O)[O-])c1)N1CCN(C(=O)c2cc(Cc3n[nH]c(=O)c4ccccc34)ccc2F)CC1 = 1.21
• O=C(/C=C/c1ccc(F)cc1)N1CCN(C(=O)c2cc(Cc3n[nH]c(=O)c4ccccc34)ccc2F)CC1 = 2.60
• O=C(/C=C/c1ccc(C(F)(F)F)cc1)N1CCN(C(=O)c2cc(Cc3n[nH]c(=O)c4ccccc34)ccc2F)CC1 = 2.47
• COc1ccc(/C=C/C(=O)N2CCN(C(=O)c3cc(Cc4n[nH]c(=O)c5ccccc45)ccc3F)CC2)cc1 = 2.16
• O=C(/C=C/c1ccc([N+](=O)[O-])cc1)N1CCN(C(=O)c2cc(Cc3n[nH]c(=O)c4ccccc34)ccc2F)CC1 = 1.58
